- subjectOfTest: Cytochrome P450 2C19 (Homo sapiens)
- experimentSummary: Cytochrome panel assay with activity outcomes
- conditionsUsed: recombinant CYP, pro-luciferin dealkylation, luminescence, p450-cyp2c19; series mostly up to 57.1 µM
Hit rate of the full screen: of about 16,000 compounds, about 5,800 (36%) were called active. About 23% were inconclusive and are not listed. The call rests on the fitted dose curve; in most records, active means well fitted curve in the direction sought with a large enough effect; inconclusive means small, poorly fitted or top-dose-only effect, or effect the other way; inactive means no such curve, though single readings can be large or run the other way. The list shows a part of the results.
Give one outcome, nothing more. List: yes for active, no for inactive

For orientation, consider the following solved cases.
1) C/C(=N\N1CCN(C2c3ccccc3-c3ccccc32)CC1)c1cccnc1 :: yes
2) O=C(OCc1ccc(Cl)cc1Cl)c1cccnc1Cl :: yes
3) C(=N\N1CCN(C2c3ccccc3-c3ccccc32)CC1)/c1cccnc1 :: yes

Hey, what did the test say about `C/C(=N\N1CCN(C2c3ccccc3-c3ccccc32)CC1)c1ccncc1` ? yes

Hey, what did the test say about `FC(F)(F)c1cc(CN2CC3(CCNCC3)C2)cc(C(F)(F)F)c1` ? no

Hey, what did the test say about `C[C@]1(c2ccccc2)OC(C(=O)O)=CC1=O` ? no
